Taken from PubChem BioAssay.

Item-by-item account of Her2 level
molecular target: Receptor tyrosine-protein kinase erbB-2 (Homo sapiens) (UniProt P04626); assay: reducers of endogenous Her2 protein level, primary screen, SKBR3 breast tumor cells, AlphaScreen, ATP viability (AID 461); conditions: 18-24 h, at 10 µM, stronger effect = lower value;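 also: lower value means less Her2 protein in the cells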
Sequence (P04626 whole entry, looked up): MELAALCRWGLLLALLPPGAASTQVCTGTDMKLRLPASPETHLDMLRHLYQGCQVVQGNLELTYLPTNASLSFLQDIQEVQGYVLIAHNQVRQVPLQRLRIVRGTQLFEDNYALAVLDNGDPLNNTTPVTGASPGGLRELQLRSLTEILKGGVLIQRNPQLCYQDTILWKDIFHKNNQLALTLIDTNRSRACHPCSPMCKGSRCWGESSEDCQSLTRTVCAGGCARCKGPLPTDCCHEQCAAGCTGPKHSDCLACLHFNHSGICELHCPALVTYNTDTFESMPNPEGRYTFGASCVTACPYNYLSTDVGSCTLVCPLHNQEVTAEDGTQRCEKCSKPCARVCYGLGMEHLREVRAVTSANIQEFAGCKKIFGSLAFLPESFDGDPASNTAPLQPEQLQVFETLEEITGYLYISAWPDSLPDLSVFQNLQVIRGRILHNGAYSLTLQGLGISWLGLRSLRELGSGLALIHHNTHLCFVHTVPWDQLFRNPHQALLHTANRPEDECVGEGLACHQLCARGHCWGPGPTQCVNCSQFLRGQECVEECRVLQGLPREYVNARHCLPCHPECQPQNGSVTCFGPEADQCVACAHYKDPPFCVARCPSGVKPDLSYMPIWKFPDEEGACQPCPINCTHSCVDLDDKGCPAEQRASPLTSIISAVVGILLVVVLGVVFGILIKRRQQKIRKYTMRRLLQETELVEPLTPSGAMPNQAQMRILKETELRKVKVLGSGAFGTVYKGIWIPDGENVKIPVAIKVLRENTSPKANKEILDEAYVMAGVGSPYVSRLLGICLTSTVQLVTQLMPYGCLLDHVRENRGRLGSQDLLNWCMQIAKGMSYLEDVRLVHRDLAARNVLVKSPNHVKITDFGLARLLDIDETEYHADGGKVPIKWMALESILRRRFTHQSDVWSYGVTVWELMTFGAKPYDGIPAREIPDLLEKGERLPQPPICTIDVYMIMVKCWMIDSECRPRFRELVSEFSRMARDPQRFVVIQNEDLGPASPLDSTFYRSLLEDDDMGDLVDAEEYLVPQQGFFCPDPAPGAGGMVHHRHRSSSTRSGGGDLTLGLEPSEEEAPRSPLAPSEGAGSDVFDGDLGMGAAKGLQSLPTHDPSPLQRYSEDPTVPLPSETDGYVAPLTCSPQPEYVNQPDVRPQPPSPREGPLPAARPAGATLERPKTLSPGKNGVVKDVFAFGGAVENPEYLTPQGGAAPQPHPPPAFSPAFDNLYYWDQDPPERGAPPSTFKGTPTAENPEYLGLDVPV

Compound	Her2 level (%)
Cn1cccc1C1NC(=O)c2c(sc3c2CCC(C(C)(C)C)C3)N1 (stereo unspecified)	77.5
Cn1c(=O)c2c3c(sc2n2c(SCc4ccccc4)nnc12)CCCC3	91.5
O=C(Nc1ccc(Cc2ccc(NC(=O)N3CCOCC3)cc2)cc1)N1CCOCC1	94
COC(=O)c1[nH]c2ccccc2c1NC(=O)CN1CCC(C(N)=O)(N2CCCCC2)CC1	97.5
O=c1c(F)cn(C2CCCO2)c(=O)n1Cc1c(F)cccc1Cl (stereo unspecified)	94
COC(=O)c1nn(-c2ccc(-c3ccccc3)cc2)cc1O	97
COc1ccc2c(=O)c3c(=O)n(Cc4ccco4)c(C(C)C)nc3oc2c1	93
c1ccc(-c2nnc(OCCN3CCOCC3)c3ccccc23)cc1	118
CCN1CCN(c2ncnc3c2oc2nc(C)c4c(c23)CC(C)(C)OC4)CC1	122
O=C(Nc1ccc(N2CCOCC2)cc1)c1cccc(S(=O)(=O)N2CCCC2)c1	85
O=C(CN1CCCC1)Nc1ccc(NC(=O)Nc2ccccc2)cc1	110
CCOC(=O)C1=C(C)N=c2s/c(=C\c3cccn3C)c(=O)n2C1c1cccc(OC)c1OC (stereo unspecified)	87
CC(NC(=O)c1ccc(F)cc1)C(c1cccs1)N1CCN(C)CC1 (stereo unspecified)	86.5
c1cn(C23CC4CC(CC(C4)C2)C3)cn1	88
Cn1nc(C(=O)NC2CCCCCC2)ccc1=O	104
CC(=O)c1cn(CC(=O)NCc2ccc3c(c2)OCO3)c2ccccc12	93
CCC(CC)C(=O)Nc1cccc(C(=O)NCc2ccco2)c1	104
Cc1ccc(C(=O)CSc2nnc(-c3cccnc3)n2N)cc1	89.5
C=CCOc1cccc(C2/C(=C(\O)c3ccc(F)cc3)C(=O)C(=O)N2CCN(C)C)c1 (stereo unspecified)	97.5
NCCN1CCN(CCN)CC1	77
Nc1nonc1-c1noc(CCCCCN2C(=O)c3ccccc3C2=O)n1	102
CCCn1c(=O)c2ccccc2n2c(SCCOc3ccccc3F)nnc12	102
COc1ccc(C(=O)OCC(=O)NCc2ccco2)cc1OC	89.5
Cc1ccc(CCNC(=O)C2CCN(S(=O)(=O)c3ccc4c(c3)CCC(=O)N4)CC2)cc1	100
COc1ccc(CCNS(=O)(=O)c2ccc3oc(C(=O)O)c(C)c3c2)cc1OC	92
CC(C)=CCCC(C)CN(C)CCc1ccccn1 (stereo unspecified)	97
O=C(COc1ccccc1F)NC1CC1	88.5
O=C(CSc1nnc(-c2c[nH]c3ccccc23)o1)N(Cc1ccccc1)c1ccc(F)cc1	102
O=C(COc1ccccc1)NCCSCc1ccco1	98.5
CCC(Sc1ncccc1C(=O)O)C(=O)N1CCCC1 (stereo unspecified)	93.5
Cc1cc(OCC(=O)Nc2ccc3oc(-c4ccncc4)nc3c2)ccc1Cl	121
O=S(=O)(NCC(c1cccnc1)N1CCN(c2ccccc2)CC1)c1cc(F)ccc1F (stereo unspecified)	87
COc1ccc(CNc2nc(SCC(=O)NCc3ccco3)nc3ccccc23)cc1	90.5
CCCN1CCC(NC(=O)Nc2ccc(OC)c(OC)c2)CC1	96.5
O=C(c1ccc(Br)o1)N(c1ccc(Br)cc1)C1C=CS(=O)(=O)C1 (stereo unspecified)	156
Cc1nc(CNS(=O)(=O)c2cc(C)c(C)cc2C)cs1	89
Cc1ccc(OC(=O)NC2CCS(=O)(=O)C2)cc1C (stereo unspecified)	95
CCCn1c(=N)n(CC(=O)c2cccs2)c2ccccc21	106
CCCC(=O)Nc1ccc2oc(-c3cccnc3)nc2c1	94
CC1(C)C(=O)Nc2ccccc2N1C(=O)COC(=O)Cn1cnc2ccccc2c1=O	112
CCn1c(SCc2nc3ccccc3c(=O)[nH]2)nnc1-c1cccnc1	98
COc1ccc(OC)c(N(CC(=O)N2CCN(c3cc(Cl)ccc3C)CC2)S(C)(=O)=O)c1	94
Nc1nc(-c2ccccc2Br)cs1	96.5
O=C1c2oc3ccccc3c(=O)c2C(c2ccccn2)N1Cc1ccccc1 (stereo unspecified)	110
Cc1ccc(CNC(=O)C2CCCN(S(=O)(=O)c3cccnc3)C2)cc1 (stereo unspecified)	109
CCCCN(CC)S(=O)(=O)c1ccc2c(c1)CCCN2C(C)=O	79.5

----------
Item-by-item account of differential viability (reversal)
assay: reversal of MRP1-mediated doxorubicin resistance, pilot screen, H69AR cells, doxorubicin co-treatment (AID 601); conditions: H69AR cells + 2 uM doxorubicin, CellTiter-Glo, 72 h; at 10 µM; stronger effect = higher value
Experimental endpoint: differential viability (reversal) (%)

Compound	Numeric result
CCOC(=O)C1CCN(c2nc3ccccc3nc2C(C#N)C(=O)OCCOC)CC1 (stereo unspecified)	27.7
CC(C)(C)NC(=O)Cn1nnc(-c2cccs2)n1	13.1
CCOC(=O)/C(C#N)=C1\Nc2ccccc2N=C1N(CC(C)C)CC(C)C	-5.4
CCOc1cccc(OCCOCCN2CCCC2)c1	-1.11
COC(=O)CC1SC(=O)NC1=O (stereo unspecified)	10.4
CCN(CC)CCCn1c(=S)[nH]c2cc(Cl)ccc2c1=O	6.63

----------
Item-by-item account of inhibition
assay: growth suppression of yeast trafficking mutant, preliminary HTS, modulators of trafficking downstream of Golgi apparatus project, 1536-format plate, OD 615 nm (AID 637); settings: yeast transport mutant growth, absorbance 615 nm, 18 h; stronger effect = higher value

Compound	Unit symbol	inhibition
CC(=O)Nc1ccc(OC(=O)c2cccs2)cc1	%	-4.59
N#CCCCCn1c(-c2cncs2)nc2ccccc21	%	-5.33
Cc1oc(-c2ccccc2)cc1C(N)=O	%	-2.9
CCOc1ccc(C(c2nnnn2Cc2ccccc2)N2CCN(C(=O)c3ccco3)CC2)cc1 (stereo unspecified)	%	-1.9
CCc1cc(C)cc(OCCNC(=O)c2ncn[nH]2)c1	%	-1.29
CSCCC(NS(=O)(=O)c1ccc2c(c1)oc(=O)n2C)C(=O)NC1CCCCC1 (stereo unspecified)	%	-3.17
Cn1c(C(=O)NCC2CCCO2)cc2c(=O)[nH]c3ccccc3c21 (stereo unspecified)	%	-7.05
Cc1cc(-n2c(C)cc(C(=O)CSc3nc4ccccc4c(=O)n3Cc3ccco3)c2C)no1	%	-1.43
CCc1[nH]nc2c1C(c1ccncc1)C(C#N)=C(N)O2 (stereo unspecified)	%	-4.92
O=C(Nc1ccccc1N1CCCCC1)c1ncoc1-c1ccc(F)cc1	%	-2.86
CCOc1ccc(CNC(=O)C2CCCN(S(C)(=O)=O)C2)cc1OC (stereo unspecified)	%	0.17

----------
biological target: Receptor tyrosine-protein kinase erbB-2 (Homo sapiens) (UniProt P04626); experiment: reducers of endogenous Her2 protein level, primary screen, SKBR3 breast tumor cells, AlphaScreen, ATP viability (AID 461); conditions: 18-24 h, at 10 µM, stronger effect = lower value;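 also: lower value means less Her2 protein in the cells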
Item-by-item account of Her2 level

Molecule	Her2 level (%)
CCCOC(=O)c1[nH]c2c(c1C)C(=O)CC(c1ccc(OC)c(OC)c1)C2 (stereo unspecified)	151
CC(Oc1ccccc1)C(=O)N1CCCc2ccccc21 (stereo unspecified)	104
CCOC(OCC)P(=O)(C(C)C)C(C)C	87
O=C1c2ccccc2C(=O)N1C/C=C/c1ccccc1	75
Cc1cc2c(s1)c1cnn(CC(=O)NCCc3ccccc3)c(=O)c1n2C	98.5
Cc1ccc(-n2ncc3c(=O)[nH]c(SCC(=O)N4CCN(c5ccccc5)CC4)nc32)cc1	77

----------
Item-by-item account of viability
assay: HUVEC growth inhibition – cell-based, human, primary screen (AID 575); conditions: HUVEC proliferation, CellTiter-Glo luminescence, 72 h; at 10 µM; stronger effect = lower value;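 also: 100% = median of untreated cell wells with 0.1% DMSO on each plate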
The source made the active and inactive calls.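 The calls were made as follows: active = viability at or below 30% in both replicate assays; inconclusive = viability at or below 30% in just one of the two assays; inactive = the rest.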
Experimental endpoint: viability

Molecule	Result
COc1ccc(N2CCN(C(=O)CSc3nnc4n3C(C)(C)Cc3ccccc3-4)CC2)cc1	84.3% (inactive)
Cc1c(C2Nc3ccccc3NC3=C2C(=O)CC(C)(C)C3)cnn1C (stereo not given)	93% (inactive)
COC(=O)C1=C(C)NC(C)=C(C(=O)OC)C1c1cc2cc(C)ccc2[nH]c1=O	84.6% (inactive)
Cc1cc(C)c(C#N)c(SCc2[nH]nc3c2C(c2ccccc2)C(C#N)=C(N)O3)n1 (stereo not given)	85.3% (inactive)
O=C(O)CCc1ccc(-c2ccc(F)cc2)n1CC(=O)O	106% (inactive)
CCOCCCNCC(=O)N1CCN(S(=O)(=O)c2ccc(C)cc2)CC1	96.2% (inactive)
Cc1ccc2cc(CN(CC3CCCO3)S(=O)(=O)c3ccc4c(c3)OCCO4)c(=O)[nH]c2c1C (stereo not given)	84.1% (inactive)
COc1ccc(Cl)cc1C(=O)n1nc(C)cc1C	93% (inactive)
O=c1cc(-c2ccc(Cl)cc2)[nH][nH]1	93.5% (inactive)
COC(=O)c1ccc(C)c(NS(=O)(=O)c2ccc3c(c2)OCCO3)c1	49.2% (inactive)
